assay overview: yeast display, Sf9 membrane polyspecificity reagent, FACS + sequencing; frameworks hold sequencing errors
readout: polyreactivity (PSR sort gate)

// known answers, use as guide
{"columns": ["primary sequence", "polyreactivity (PSR sort gate)"],
 "data": [
  ["QVQLVESGGGIVQAGGSLRLSCAASGFTFGSYAMGWYRQAPGKEREFVAAIRRSGSSTYYADSVKGRFTISRDNAKNTVYLQMNSLKPEDTAVYYCAADVYRRLRRYRYYYWGQGTQVTVSS", "low polyreactivity"],
  ["QVQLVESGGGLVQAGGSLRLSCAASGSTFWLNAMGWYRQAPGKEREYVAAITWSSGSTYYADSVKGRFTISRDNAKNTVYLQMNSLKPEDTAVYYCAADGRYVRIRGDYWGQGTQVTVSS", "low polyreactivity"],
  ["QVQLVDSGGGLVQAGGSLRLSCAASGSIFGSYVMGWYRQAPGKERELVAAISSSGASTYYADSVKGRFTISRDNAKNTVYLQMNSLKPEDTAVYYCAAGYVHLYYFHEYYWGQGTQVTVSS", "high polyreactivity"],
  ["QVQLVESGGGLVQAGGSLRLSCAASGLSFRRYAMGWYRQAPGKEREFVATISRRGGSTRYADSVKGRFTISRDNAKNTVYLQMKSLKPEDTAVYYCNKVEYASIAKGYDYWGQGTQVTVSS", "high polyreactivity"],
  ["QVQLVESGGGLVQAGGSLRLSCAASGSTFRYYAMGWYRQAPGKERELVAAINSGGSTYYADSVKGRFTISRDNAKNTVYLQMNSLKPEDTAVYYCAAYYFWYLYWGQGTQVTVSS", "high polyreactivity"]
]}

Just so you know, measured polyreactivity (PSR sort gate) for QVQLVESGGGLVQAGGSLRLSCAASGRIFRYNAMGWYRQAPGKERELVASINQRGGSTYYADSVKGRFTISRDNAKNTVYLQMNSLKPEDTAVYYCAKRFNSGYYYWGQGTQVTVSS came out at high polyreactivity

Data point: QVQLVESGGGLVQAGGSLRLSCAASGSTFRANAMGWYRQAPGKERELVAAIRWRGVGTYYADSVKGRFTISRDNAKNTVYLQMNSLKPEDTAVYYCAARRLGRSGNGSWGQGTQVTVSS ; polyreactivity (PSR sort gate) = high polyreactivity

# sequence QVHLVESGGGLVQAGGSLRISCAASGRIFWWYAMGWYRQAPGKERELVAAISTGSRTYYADSVKGRFTISRDNAKNTVFLQMNRLKPEDTAVYYCVADGLYSVSRSSIFEYWGHGTQVTVSS ; its polyreactivity (PSR sort gate) = low polyreactivity

According to the records, this sequence QVQLVESGGGLVQAGGSLRLSCAASGGTFVYSAMGWYRQAPGKERELVAAINWSGGSTYYADSVKGRFTISRDNAKNTVYLQMNILKAEDTAVLLLQRSGLRRSGVWFDYWGQGTQVTVSS displays polyreactivity (PSR sort gate) of low polyreactivity

Given item QVQLEESGGGLVQAGGSLRLSCAASGILRDNAMGWYRQAPGKERELVATINGDGSTYADSVKGRFTISRDNAKNTVYLQMNSLKPEDTAVYYCAAPFTTTFDYWGQGTQVTVSS , the value recorded as its polyreactivity (PSR sort gate) is low polyreactivity

So for QVQLVESGGGLVQAGGSLRLSCAASGSTFYYYAMGWYRPAPGKERELVAAIRSDVSTNYADSVKGRFTISRDNAKNTVYLQMNSLKPEDTAVYYCAARFPWNRVTYDYWGQGTQVTVSS , the logged polyreactivity (PSR sort gate) turned out to be low polyreactivity

// provenance: the nanobody polyreactivity screen of Harvey et al. (2022)
